- Tested on: Artificial Cell Surface (ACS): biotinylated cell surface proteins of human PBMCs bound to a streptavidin column (human)
- Method: adsorption on ACS column, MALDI-TOF ms
# Lookup of reported Percent Absorbed keyed by entry
Numbers only; they are read as %.

Study these solved cases before continuing.
1. VHTECCHGDLLECADDR [Trypsin-generated albumin fragment, SEQ ID NO 212]
13
2. CCTESLVNR [Trypsin-generated albumin fragment, SEQ ID NO 206]
26

Turning now to a further record.
// Input: DDNPNLPR [Trypsin-generated albumin fragment, SEQ ID NO 216] . Output its Percent Absorbed only. 1
